Tested on: HeLa Kyoto;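 note: synchronized HeLa Kyoto cells, proteins quantified by TMT10plex mass spectrometry, three biological replicates, mitosis taken 0.5 h after nocodazole release, G1/S directly after double thymidine block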
PROTOCOL_DESCRIPTION: thermal stability score vs G1/S (z-score of summed log2 fold changes over temperatures); higher = more thermally stable than in G1/S
MEASUREMENT_PARAMETERS: cell cycle stage: early G1 (4.5 h after nocodazole release)
OUTCOME_MEASURE: thermal stability score
Would you mind answering with just the numeric figure?

Query :: For the sequence shown here, MAAASGSVLQRCIVSPAGRHSASLIFLHGSGDSGQGLRMWIKQVLNQDLTFQHIKIIYPTAPPRSYTPMKGGISNVWFDRFKITNDCPEHLESIDVMCQVLTDLIDEEVKSGIKKNRILIGGFSMGGCMAIHLAYRNHQDVAGVFALSSFLNKASAVYQALQKSNGVLPELFQCHGTADELVLHSWAEETNSMLKSLGVTTKFHSFPNVYHELSKTELDILKLWILTKLPGEMEKQK [LYPLAL1] , give the reported thermal stability score.
Result :: 1.32

Query :: Value lookup for thermal stability score; key = MSESLVVCDVAEDLVEKLRKFRFRKETNNAAIIMKIDKDKRLVVLDEELEGISPDELKDELPERQPRFIVYSYKYQHDDGRVSYPLCFIFSSPVGCKPEQQMMYAGSKNKLVQTAELTKVFEIRNTEDLTEEWLREKLGFFH [GMFB]
Result :: -2.8

Query :: For the sequence MFVPCGESAPDLAGFTLLMPAVSVGNVGQLAMDLIISTLNMSKIGYFYTDCLVPMVGNNPYATTEGNSTELSINAEVYSLPSRKLVALQLRSIFIKYKSKPFCEKLLSWVKSSGCARVIVLSSSHSYQRNDLQLRSTPFRYLLTPSMQKSVQNKIKSLNWEEMEKSRCIPEIDDSEFCIRIPGGGITKTLYDESCSKEIQMAVLLKFVSEGDNIPDALGLVEYLNEWLQILKPLSDDPTVSASRWKIPSSWRLLFGSGLPPALF [PSMG2] , what thermal stability score is on record?
Result :: -0.904
